# credit: PubChem BioAssay (NCATS)

# Tested on: C33A
# method.description: Primary qHTS to identify gynecologic anti-cancer compounds using libraries of approved drugs and bioactive compounds (AID 1345084); also: nearly all actives have a fitted effect of over 55% in size
# test.settings: Gynecologic cancer cell panel viability, ATPlite luminescence, 48 h; series mostly up to 57.5 µM
Records with an inconclusive call do not appear. Calls of active or inactive are those of the source. Calls follow the shape of the dose curve; as a rule, active = well fitted cell-killing curve with a large enough effect; inconclusive = small, poorly fitted or top-dose-only effect, or effect the other way; inactive = flat fitted curve, though single readings scatter.
Possible outcomes: active, inactive

compound: Cn1cc(-c2cnn3c(N)c(Br)c([C@@H]4CCCNC4)nc23)cn1
qualitative.label: inactive
//
compound: CC(C)(C[C@@](O)(Cc1cc2ccncc2[nH]1)C(F)(F)F)c1cc(F)ccc1O
qualitative.label: inactive
//
compound: C/C=C/C=C/C=C/C(=O)O[C@@H]1C=C(CO)C(O)(C(=O)OC)[C@@]2(C)CCCC(C)(C)C12 (some centres not stated)
qualitative.label: inactive
//
compound: CC(=O)OC/C(=C/C(=O)O)CC[C@@H]1C(C=O)=CC[C@@H]2C(C)(C)CCC[C@@]12C
qualitative.label: inactive
//
compound: CC(=O)OCC(=O)[C@@]12O[C@@H]1C[C@H]1[C@@H]3CC=C4C[C@@H](O)CC[C@]4(C)[C@H]3CC[C@@]12C
qualitative.label: inactive
//
compound: Nc1c(S(=O)(=O)c2ccccc2)c2nc3ccccc3nc2n1-c1ccc(F)cc1
qualitative.label: inactive
//
compound: O=C(NCc1nc2ccccc2c(=O)n1-c1ccc(F)cc1)Nc1ccc(Cl)c(C(F)(F)F)c1
qualitative.label: inactive
//
compound: O=C(NCC1(N2CCN(c3ccccc3)CC2)CCOCC1)c1cccnc1Sc1ccccc1
qualitative.label: inactive
//
compound: Nc1nc2c(cnn2CCCc2ccc(O)cc2)c2nc(-c3ccco3)nn12
qualitative.label: inactive
//
compound: NC(N)=N/N=C/c1ccccc1Cl
qualitative.label: inactive
//
compound: C[C@H]1CO[C@@H]2Cn3cc(C(=O)NCc4ccc(F)cc4F)c(=O)c(O)c3C(=O)N12
qualitative.label: inactive
//
compound: CCOC(=O)C1=Cc2ccc(C(F)(F)C(F)(F)F)cc2N=C(N)C1
qualitative.label: inactive
//
compound: CN1CCN(C2=Nc3ccccc3Nc3ccc(Cl)cc32)CC1
qualitative.label: inactive
//
compound: O=C(NC1CCC1)c1ccc(C#Cc2cccc(F)c2)nc1
qualitative.label: inactive
//
compound: Cc1nnc(-c2ccc(-c3ccc(C(=O)Nc4ccc(O)c(N5CCN(C)CC5)c4)cc3)c(C)c2)o1
qualitative.label: inactive
//
compound: COc1cccc(NCCC2(c3ccccc3)CC(C)(C)OC(C)(C)C2)c1
qualitative.label: inactive
//
compound: Cc1[nH]c2ccccc2c1CCNCc1ccc(/C=C/C(=O)NO)cc1
qualitative.label: active
//
compound: COc1cc(C2OC(c3ccc(OC)c(OC)c3)C(C)C2C)ccc1O (configuration not stated)
qualitative.label: inactive
//
compound: CC(NCCCc1cccc(C(F)(F)F)c1)c1cccc2ccccc12 (configuration not stated)
qualitative.label: inactive
//
compound: C=C1C(=O)OC2/C=C(\C)CC3C=C(CC/C=C(\C)CCC12)C(=O)O3 (configuration not stated)
qualitative.label: inactive
//
compound: COc1ccc2c(NC(=O)Nc3cccc(C(F)(F)F)n3)ccnc2c1
qualitative.label: inactive
//
compound: CC(C)(C)NC(=O)[C@H]1CC[C@H]2[C@@H]3CC[C@H]4NC(=O)CC[C@]4(C)[C@H]3CC[C@]12C
qualitative.label: inactive
//
compound: O=C(NCc1ccccc1-c1ccccc1C(=O)NCCc1ccccn1)OCc1ccccc1
qualitative.label: inactive
//
compound: CC(C)c1ccccc1OC(=O)NCCc1ccc2ccccc2c1
qualitative.label: inactive
//
compound: COc1ccc([C@H]2Cc3cccc(O)c3C(=O)O2)cc1OC
qualitative.label: inactive
//
compound: COc1cc(F)c(C(C)C)cc1-c1ccc(C(F)(F)F)cc1CN1C(=O)OC(c2cc(C(F)(F)F)cc(C(F)(F)F)c2)C1C (configuration not stated)
qualitative.label: inactive
//
compound: COC(=O)c1ccc2c(c1)[nH]c1ncnc(NCCCN3CCCCC3)c12
qualitative.label: inactive
//
compound: CNC(=O)[C@@H](c1ccccc1)N1CCc2cc(OC)c(OC)cc2[C@@H]1CCc1ccc(C(F)(F)F)cc1
qualitative.label: inactive
//
compound: C=C1C(=O)OC2CC(C)C(CCC(C)O)=CCC12 (configuration not stated)
qualitative.label: inactive
//
compound: CC(C)=CCc1cc2c(cc1O)OC[C@H]1c3ccc(O)cc3O[C@@H]21
qualitative.label: inactive
//
compound: C=C1CC(=O)C2OC2(C)CC2OC(=O)C(=C)C2C(O)C1OC(=O)/C(C)=C\C (configuration not stated)
qualitative.label: inactive
//
compound: CC(=O)O[C@@H]1C[C@@]23C[C@@]24CC[C@H](O[C@@H]2OC[C@H](O)[C@H](O)[C@H]2O)C(C)(C)[C@@H]4CC[C@H]3[C@]2(C)[C@@H](O)C34O[C@H](C[C@@H](C)[C@@H]3[C@@]12C)[C@@H](C(C)(C)O)O4
qualitative.label: inactive
//
compound: CC(=O)OC1C(O)CC2(C)C(CCC3(C)C2CC=C2C4C5(CCC(CO[C@@H]6O[C@H](CO)[C@@H](O)[C@H](O)[C@H]6O)(OC5=O)C4(C)O)C(O)CC23C)C1(C)C (some centres not stated)
qualitative.label: inactive
//
compound: C1=C/COCc2cc(ccc2OCCN2CCCC2)Nc2nccc(n2)-c2cccc(c2)COC/1
qualitative.label: active
//
compound: O=C(COc1ccc2ccccc2c1Br)Nc1cccnc1
qualitative.label: inactive
//
compound: O=C(C1CCCCC1)N(CCN1CCN(c2ccccc2O)CC1)c1ccccn1
qualitative.label: inactive
//
compound: CCc1c(Cl)c(O)c(Cl)c(O)c1C(=O)O[C@H]1[C@H](O)[C@H](OC)[C@H](OC/C2=C\C=C\C[C@H](O)/C(C)=C\[C@H](CC)[C@@H](O[C@@H]3OC(C)(C)[C@@H](OC(=O)C(C)C)[C@H](O)[C@@H]3O)/C(C)=C/C(C)=C/C[C@@H]([C@@H](C)O)OC2=O)O[C@@H]1C
qualitative.label: inactive

###

# System: Tov-21-G
# method.description: Primary qHTS to identify gynecologic anti-cancer compounds using libraries of approved drugs and bioactive compounds (AID 1345084); also: nearly all actives have a fitted effect of over 55% in size
# test.settings: Gynecologic cancer cell panel viability, ATPlite luminescence, 48 h; series mostly up to 57.5 µM
Results filed as inconclusive are left out. Calls of active or inactive are those of the source. Calls come from the whole dose curve; as a rule, active = well fitted cell-killing curve with a large enough effect; inconclusive = small, poorly fitted or top-dose-only effect, or effect the other way; inactive = flat fitted curve, though single readings scatter.
Possible outcomes: T = active, F = inactive

compound: CC(C)(CO)c1cc2cc(NC(=O)C3(c4ccc5c(c4)OC(F)(F)O5)CC3)c(F)cc2n1CC(O)CO (centres undefined)
study.target: Tov-21-G
qualitative.label: F

compound: COc1cc(CN(CCN)C(=O)c2cccs2)ccc1OCc1ccccc1
study.target: Tov-21-G
qualitative.label: F

compound: CC(=O)OCC(=O)[C@@]12O[C@@H]1C[C@H]1[C@@H]3CC=C4C[C@@H](O)CC[C@]4(C)[C@H]3CC[C@@]12C
study.target: Tov-21-G
qualitative.label: F

compound: COc1ccc(CCc2nc3cc(-c4c(C)noc4C)ccc3n2CC(C)N2CCOCC2)cc1Cl (centres undefined)
study.target: Tov-21-G
qualitative.label: F

compound: CC(=O)OC(C)(C)/C=C/C(=O)C(C)(O)C1C(O)CC2(C)C3CC=C(C(C)(C)C(=O)O)C(CC(=O)O)C3(C)C(=O)CC12C (centres undefined)
study.target: Tov-21-G
qualitative.label: F

compound: CC(C)(N)c1ncc(-c2ccc(OC(F)(F)F)cc2)[nH]1
study.target: Tov-21-G
qualitative.label: F

compound: Cc1cc(F)ccc1-c1nc(NCCN=C(N)NC#N)nc2c1ccc(=O)n2-c1c(F)cccc1F
study.target: Tov-21-G
qualitative.label: F

compound: Cc1cc(-c2cc(OC(=O)c3ccccc3)ccc2Cl)cc2nnc(Nc3ccc(OCCN4CCCC4)cc3)nc12
study.target: Tov-21-G
qualitative.label: F

compound: COc1ccc(Sc2ccc(NC(=O)c3ccccc3Cl)cc2C#N)cc1
study.target: Tov-21-G
qualitative.label: F

compound: CCC(C)CNCC(=O)N1CCC2SC=CC2C1COc1cccc(C)c1 (centres undefined)
study.target: Tov-21-G
qualitative.label: F

compound: C=C1C(=O)O[C@@H]2C=C(COC(C)=O)CC/C=C(\CO)CC[C@@H]12
study.target: Tov-21-G
qualitative.label: F

compound: COc1cc(-c2nc(N[C@H](CO)Cc3ccccc3)ccc2C(=O)NCCOc2ccccc2)cc(OC)c1OC
study.target: Tov-21-G
qualitative.label: F

compound: O=S(=O)(Cc1ccccc1)Nc1ccc(-c2ccc3c(cnn3-c3ccc(F)cc3)c2)c(C(F)(F)F)c1
study.target: Tov-21-G
qualitative.label: F

compound: C=C1CC[C@@H](O)[C@]2(C)C[C@H]3OC(=O)C(=C)[C@H]3CC12 (some centres undefined)
study.target: Tov-21-G
qualitative.label: F

compound: C=C1[C@H]2CC[C@H](C(=O)O)[C@@]23CC[C@H](C3)C1(C)C
study.target: Tov-21-G
qualitative.label: F

compound: COc1ccc2[nH]c(=O)c3c(c2c1)OC(C)(C)C=C3
study.target: Tov-21-G
qualitative.label: F

compound: O=C(O)c1cc(N(Cc2ccc(C3CCCCC3)cc2)C(=O)c2ccc(Oc3ccccc3)cc2)ccc1O
study.target: Tov-21-G
qualitative.label: F

compound: Cc1nc2ccc(-n3ncc(C(=O)c4cc5ccccc5[nH]4)c3N)cc2[nH]1
study.target: Tov-21-G
qualitative.label: T

compound: C/C=C/C1=CC2=C(CO1)C(=O)C(C)(OC(=O)c1c(C)cc(O)cc1OC)C(O)C2 (centres undefined)
study.target: Tov-21-G
qualitative.label: F
